Values compiled from the supplement of paper PMC7125110.

Recorded self-cleavage kobs at 640 uM GlcN6P for the following variants
B1: glmS ribozyme (parent)
chain: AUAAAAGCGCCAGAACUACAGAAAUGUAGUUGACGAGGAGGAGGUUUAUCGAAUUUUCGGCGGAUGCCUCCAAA

variants of: B1; assay: self-cleavage kobs at 640 uM GlcN6P; higher = faster cleavage; RNA array; conditions: with glucosamine-6-phosphate
Fewer inactive variants are shown than the library holds.

{"columns": ["Item sequence", "self-cleavage kobs at 640 uM GlcN6P"],
 "data": [
  ["AUAAAAGCGCCAGAACUACAGAAAUGUAGAUGACGAGGAGGAGGUUUAUCCAAUUUUCGGCGGAUGCCUCCAAA [U30A G51C]", "< 1e-05 s⁻¹"],
  ["AUAAAUGCGCCAGCACUACAGAAAUGUAGUUGACGAGGAGGAGGUUUAUCCAAUUUUCGGCGGAUGCCUCCAAA [A6U A14C G51C]", "< 1e-05 s⁻¹"],
  ["AUAAAAGCCCCAGAACUACAGAAAUGUAGUUGGCAAGGAGGAGGUUUAUCGAAUUUUCGGCGUAUGCCUCCAAA [G9C A33G G35A G63U]", "< 1e-05 s⁻¹"],
  ["AUAAAAGCGCCAGAACUACAGAAAUGUAGUUGCCGAGGAGGAUGUUUAUCGAAUUUUCGGCGUAUGCCUCCAAA [A33C G43U G63U]", "< 1e-05 s⁻¹"],
  ["AUAAAACCGCCAGAGCUACAGAAAUGUAGUUGACGUGGAGGAGGUUUAUCGAAUUUUCGGCGGAUGCCUCCAAA [G7C A15G A36U]", "< 1e-05 s⁻¹"],
  ["AUAAAAGCGCCAGAACUACAGAAAUGUAGUUGACCAGGAUGAGGUUUAUCGAAUUUUCGGCGGAUGCCUCCAAA [G35C G40U]", "< 1e-05 s⁻¹"],
  ["AUAAAAGGGCCUGAACUACAGAAAUGUAGUUGACGCGGAGGAGGUUUAUCGAAUUUUCGGCGGAUGCCUCCAAA [C8G A12U A36C]", "< 1e-05 s⁻¹"],
  ["AUAAAAACGCCAGAACUACAGAAAUGUAUUUGACGAGGAGGAGGUUUAUCGAAUUUUCGGCGGAUGCCUCCAAA [G7A G29U]", "< 1e-05 s⁻¹"],
  ["AUAAAGGCGCCAGAACUACAGAAAUGUAGUUGACGAGGAGGAGGUUUAUCGUAUUUUCGGCGGAUGCCUCCAAA [A6G A52U]", "< 1e-05 s⁻¹"],
  ["AUAAAAGCGCCAGAACUACAGAAAUGUAGUUGACGUGGAGAUUGUUUAUCGAAUUUUCGGCGGAUGCCUCCAAA [A36U G41A A42U G43U]", "< 1e-05 s⁻¹"],
  ["AUAAAUGCACCAGAACUACAGAAAUGUAGUUGACGAGGAGGAGGUUUAUUGAAUUUUCGGCGGAUGCCUCCAAA [A6U G9A C50U]", "< 1e-05 s⁻¹"],
  ["AUAAAAGCGACAGAACUACAGAAAUGUAGUUGACGAGGAGGAGGUUUAUCGAAUUUUUGGCGGAUGCCUCCAAA [C10A C58U]", "< 1e-05 s⁻¹"],
  ["AUAAACGCGCCAGAACUACAGAAAUGUAGUUGACUAGGAGGAGGUUUAUCGAAUUUUCGGCGGAUGCCUCAAAA [A6C G35U C71A]", "< 1e-05 s⁻¹"],
  ["AUAAAAGCGCCAGAACUACAGAAAUGUAGUUGACGAGGAGGAGGUUUAUCCAAUUUUCGGCGUAUGCCUCCAAA [G51C G63U]", "< 1e-05 s⁻¹"],
  ["AUAAAACCGCCAGAACUACAGAAAUGUAGUUGACGAGGAUGAGGUUUAUCGAAUUUUCGGCGGAUGCCUCCAAA [G7C G40U]", "< 1e-05 s⁻¹"],
  ["AUAAAAGCGCCAGAACUACAGAAAUGUAGUGGACGAGGAGGAGAUUUAUCGAAUUUUCGGCGGAUGCUUCCAAA [U31G G44A C68U]", "< 1e-05 s⁻¹"],
  ["AUAAAAGCGCCAGCACUACAGAAAUGUAGUUGACGAGGAGGAGGUUUAUCGAAUUUUCGUCGGAUGCCUCCAAA [A14C G60U]", "< 1e-05 s⁻¹"],
  ["AUAAAAGCGCCAGAACUACAGAAAUGUAGUUGACGAGGAGGAGGCUUAUCGAAUUUUCGGCGGACUCGUCCAAA [U45C U65C G66U C68G]", "< 1e-05 s⁻¹"],
  ["AUAAAAGCGCCAGAACUACAGAAAUGUAGUUGACCAGGAGGAGGUUUAUCGAAUUUUCGGCGGAUGACUCCAAA [G35C C67A]", "< 1e-05 s⁻¹"],
  ["AUAAAAGCGCCAGAACUACAGAAAUGUAGUUGACGAGGAGGAGGUUUAUCGAAUUUCCGGCCGAUGCGUCCAAA [U57C G62C C68G]", "< 1e-05 s⁻¹"],
  ["AUAAAAGCGCCAGAACUACAGAAAUGUAGUUGACGAGGAGGACGUUUAUCGAGUUUUCGGCGGAUGCCUCCAAA [G43C A53G]", "< 1e-05 s⁻¹"],
  ["AUAAAAGCUCCAGAACUACAGAAAUGUACUUGACGAGGAGGAGGUUUAUCGAAGUUUCGGCGGAUGCCACCAAA [G9U G29C U54G U69A]", "< 1e-05 s⁻¹"],
  ["AUAAAAGCGCCAGAACUACAGAAAUGUAGUUGUCGUGGAGGAGGUUUAUCGAAUUUUCGGCGGAUGCCUCCAAA [A33U A36U]", "< 1e-05 s⁻¹"],
  ["AUAAAAGGGCCUGAACUACAGAAAUGUAGUUGACGAGGAGGAGGUUUAUCGAAUUUUCGGCGUAUGCCUCCAAA [C8G A12U G63U]", "< 1e-05 s⁻¹"]
]}
